# credit: ChEMBL document CHEMBL4834403

Attribute: IC50
study-system: Histone-lysine N-methyltransferase EHMT2 (Homo sapiens, UniProt Q96KQ7)
Sequence (Q96KQ7 whole entry): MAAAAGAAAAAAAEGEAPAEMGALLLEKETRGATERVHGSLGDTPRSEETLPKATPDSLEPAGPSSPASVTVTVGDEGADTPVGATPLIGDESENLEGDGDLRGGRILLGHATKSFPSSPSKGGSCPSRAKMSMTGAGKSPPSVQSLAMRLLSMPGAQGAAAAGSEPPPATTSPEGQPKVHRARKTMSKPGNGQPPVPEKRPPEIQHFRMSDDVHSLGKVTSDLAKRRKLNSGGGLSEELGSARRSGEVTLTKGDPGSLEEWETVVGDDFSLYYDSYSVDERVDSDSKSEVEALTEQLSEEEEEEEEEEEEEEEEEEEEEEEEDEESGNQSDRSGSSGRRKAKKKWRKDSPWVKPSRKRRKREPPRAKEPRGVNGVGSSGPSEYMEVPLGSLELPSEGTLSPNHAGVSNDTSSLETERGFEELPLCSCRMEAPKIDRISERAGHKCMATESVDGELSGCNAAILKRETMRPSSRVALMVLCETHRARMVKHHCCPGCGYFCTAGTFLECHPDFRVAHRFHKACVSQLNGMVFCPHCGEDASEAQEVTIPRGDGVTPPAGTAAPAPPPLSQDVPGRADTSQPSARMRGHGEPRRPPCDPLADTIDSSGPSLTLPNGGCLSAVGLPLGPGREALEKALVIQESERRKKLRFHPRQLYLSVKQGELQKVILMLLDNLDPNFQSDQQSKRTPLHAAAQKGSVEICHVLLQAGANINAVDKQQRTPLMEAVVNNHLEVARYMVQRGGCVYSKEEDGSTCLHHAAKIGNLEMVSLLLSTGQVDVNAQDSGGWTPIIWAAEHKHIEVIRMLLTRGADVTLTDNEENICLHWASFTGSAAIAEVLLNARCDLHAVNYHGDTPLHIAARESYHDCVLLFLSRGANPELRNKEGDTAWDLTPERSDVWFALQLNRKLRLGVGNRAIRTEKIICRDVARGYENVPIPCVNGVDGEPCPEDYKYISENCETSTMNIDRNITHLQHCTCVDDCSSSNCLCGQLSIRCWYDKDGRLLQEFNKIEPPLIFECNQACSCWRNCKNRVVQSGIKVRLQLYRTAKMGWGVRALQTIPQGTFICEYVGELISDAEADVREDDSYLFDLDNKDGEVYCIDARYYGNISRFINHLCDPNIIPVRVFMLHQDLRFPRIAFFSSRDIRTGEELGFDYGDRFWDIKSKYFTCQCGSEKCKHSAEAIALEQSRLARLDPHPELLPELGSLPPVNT

Sample `COc1cc2nc(-c3ccc(C)o3)cc(NC3CCN(c4ncc(C(=O)NO)cn4)CC3)c2cc1OC` — what was its IC50?
> 10 µM

Note, next up: `COc1cc2nc(-c3ccc(C)o3)nc(NCC3CCN(c4ncc(C(=O)NO)cn4)CC3)c2cc1OC`
> 10 µM

Note, next up: `O=C(CCCCCCC(=O)Nc1ccccc1)NO`
> 10 µM

Note, next up: COc1cc2nc(-c3ccc(C)o3)cc(NCC3CCC(C(=O)NO)CC3)c2cc1OC (stereo not given)
> 10 µM

Note, next up: `COc1cc2c(NCC3CCN(c4ncc(C(=O)NO)cn4)CC3)cc(C)nc2cc1OCCCN1CCCC1`
0.004 µM
